Every entry's value here was drawn from paper PMC9090415.

Biological target: bacteriophage T4 DNA polymerase (Enterobacteria phage T4, UniProt P04415)
Construct: made in house
Sequence (P04415 whole entry): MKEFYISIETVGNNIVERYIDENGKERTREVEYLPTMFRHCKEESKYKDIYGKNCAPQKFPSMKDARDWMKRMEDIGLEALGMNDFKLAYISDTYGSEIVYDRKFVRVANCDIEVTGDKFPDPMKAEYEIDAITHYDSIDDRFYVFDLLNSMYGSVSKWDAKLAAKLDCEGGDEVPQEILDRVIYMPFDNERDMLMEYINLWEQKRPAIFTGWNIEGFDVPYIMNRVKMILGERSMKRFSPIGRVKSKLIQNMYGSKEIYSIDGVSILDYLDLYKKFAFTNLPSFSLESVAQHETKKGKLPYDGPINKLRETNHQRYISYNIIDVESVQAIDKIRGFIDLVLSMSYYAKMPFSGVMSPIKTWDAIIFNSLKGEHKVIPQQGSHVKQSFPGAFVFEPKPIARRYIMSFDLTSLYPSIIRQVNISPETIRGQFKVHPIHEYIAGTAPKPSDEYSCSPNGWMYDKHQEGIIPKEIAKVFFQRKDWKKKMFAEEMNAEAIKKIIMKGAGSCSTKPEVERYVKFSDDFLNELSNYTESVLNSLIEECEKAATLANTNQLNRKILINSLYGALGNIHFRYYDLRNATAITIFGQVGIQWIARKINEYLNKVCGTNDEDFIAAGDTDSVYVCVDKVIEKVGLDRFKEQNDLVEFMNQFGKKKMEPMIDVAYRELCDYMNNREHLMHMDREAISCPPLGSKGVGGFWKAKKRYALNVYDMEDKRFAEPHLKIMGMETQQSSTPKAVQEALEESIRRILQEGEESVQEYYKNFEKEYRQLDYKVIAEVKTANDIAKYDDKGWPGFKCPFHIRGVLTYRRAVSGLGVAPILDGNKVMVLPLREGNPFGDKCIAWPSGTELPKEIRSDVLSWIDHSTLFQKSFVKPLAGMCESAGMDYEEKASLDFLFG
Assay: Counter-screen against bacteriophage T4 DNA polymerase
Assay type: biochemical
Conditions: DRC-2; read at 40'; concentration 5
Reported % inhibition T4 40' 5 values for the following compounds.
Output spec: scalar in %, unitless text.

compound=CCCc1ccc(Oc2coc3cc(OC)ccc3c2=O)cc1 measurement_target="bacteriophage T4 DNA polymerase (Enterobacteria phage T4, UniProt P04415)" measured_value=-2.34
compound=Cc1cc2[nH]c(C(=O)Nc3ccc(F)cc3)c(CN3CCOCC3)c2s1 measurement_target="bacteriophage T4 DNA polymerase (Enterobacteria phage T4, UniProt P04415)" measured_value=2.11
compound=N#Cc1c(O)nc(N2CCCCC2)nc1-c1ccc2c(c1)OCO2 measurement_target="bacteriophage T4 DNA polymerase (Enterobacteria phage T4, UniProt P04415)" measured_value=10
compound=Cc1cccc(-c2noc(C(=O)NNC(=O)C(Cl)(Cl)Cl)n2)c1 measurement_target="bacteriophage T4 DNA polymerase (Enterobacteria phage T4, UniProt P04415)" measured_value=-1.26

// returns reported % inhibition T4 40' 5 for input "COc1ccc(/C=C/c2cc(C(=O)O)c3ccccc3n2)cc1"
8

Also O=C1CSC2=NC3=C(CCc4ccccc43)C(c3cccs3)N12 (stereo not drawn) , if possible.
18

Also "Cc1nc(C)c2c(n1)N(CC1CCCCC1)C(=O)CC2" , if possible.
4.39

Also "O=C(CCc1csc(NC(=O)Nc2ccccc2)n1)Nc1nc2ccccc2s1" , if possible.
2

Also C#CC(C=CC)OC(=O)c1ccccc1C(=O)O (stereo not drawn) , if possible.
-3.69
